Tested on: UO-31 renal
testDescription: NCI tumour cell line growth inhibition, 48 h
propertyMeasured: TGI (µM)
Field: numeric (µM). Do not append units.

compoundString	unitName	TGI
CC1=C(C(=O)Nc2cccc(C(F)(F)F)c2)C(c2ccccc2F)C(C(=O)Nc2cccc(C(F)(F)F)c2)=C(C)N1	µM	17.3

Give recorded TGI with UO-31 renal for the following compound: C/C(=C\CCc1ccsc1)CC/C=C(\C)CCCN1CCN(CCO)CC1
20.5

###

// reported TGI per item
Tested on: CCRF-CEM leukemia
testDescription: NCI tumour cell line growth inhibition, 48 h

Example results:
compound	TGI
Cc1ccc(C2NC(=S)N3C(c4ccc(C)cc4)NC(=S)N23)cc1 (stereo not drawn)	10.2 µM
CCCCCCCCn1ccc2cc(NC(=O)Cn3cc(CN4CCC(C)CC4)nn3)ccc21	9.71 µM
N#Cc1nc(-c2ccccc2O)oc1N	> 100 µM
COC(=O)[C@H]1CC(=O)C=C2CCCC21 (stereo partly drawn)	> 100 µM
O=C1C=Cc2c1csc2Br	45.8 µM

Please turn your attention to the following entry.
# TGI lookup, item N#Cc1ccc(N2Cc3cc(Cl)ccc3OC3=C2C(=O)N(Cc2ccc(F)cc2)C3=O)cc1
1.09 µM
